Tested on: MRSA HEMSA 5
Assay: Oxacillin MIC reduction (adjuvant) microdilution assay
Format: cell-based, Staphylococcus aureus
Settings: MIC(OXA)/MIC(OXA+Cpd), compound 0.5 mM, adjuvant activity if A ≥ 4
recorded metric: Activity Gain [A]
Answers are plain numbers.

Reference set, count: 2
{"compound": "CCOP(=O)(OCC)[C@@H]1[C@H](c2ccccc2F)C(=O)N1Cc1ccccc1 (relative stereo) [cis-11b]", "tested target": "MRSA HEMSA 5", "Activity Gain [A]": 1}
{"compound": "CCOP(=O)(OCC)[C@H]1[C@H](c2ccc(F)c(C)c2)C(=O)N1Cc1ccccc1 (relative stereo) [trans-11f]", "tested target": "MRSA HEMSA 5", "Activity Gain [A]": 16}

# per-item lookup of Activity Gain [A]; items listed below
1. CCOP(=O)(OCC)[C@@H]1[C@H](c2ccc(F)cc2)C(=O)N1Cc1ccccc1 (relative stereo) [cis-11d]
2. CCOP(=O)(OCC)[C@H]1[C@H](c2ccccc2F)C(=O)N1C (relative stereo) [trans-10b]
3. CCOP(=O)(OCC)[C@H]1[C@H](c2ccc(F)cc2F)C(=O)N1Cc1ccccc1 (relative stereo) [trans-11e]

### Response
1. 1
2. 1
3. 1
